molecular target: T1, cyno pro-myostatin (cynomolgus monkey, Biotinylated for capture in the SPR assay (site not stated). The native form is a disulfide-linked homodimer, partly furin-cleaved; one chain is given.); experiment: SPR Biacore 8K, biotin-antigen captured
T1 construct: also called proGDF8 (cynomolgus); cynomolgus monkey pro-myostatin
# log10 of koff per record follows
observedProperty: log10 of koff (log10 of the value in s⁻¹)

Ab104 (antibody, human IgG4 S228P, kappa, V domains shown) VH: EVQLVESGGGLVQPGGSLRLSCAASGSAFSSYGMSWVRQAPGKGLELVASINSNGGSTYYPDSVKGRFTISRDNAKNSLYLQMNSLRAEDTAVYYCARDLLVKFLSWSHYYGMDVWGQGTTVTVSS VL: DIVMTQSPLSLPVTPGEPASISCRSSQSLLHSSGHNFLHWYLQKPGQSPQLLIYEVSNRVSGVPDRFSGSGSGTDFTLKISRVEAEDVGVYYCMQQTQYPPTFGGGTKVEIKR | -3.49
Ab103 (antibody, human IgG4 S228P, kappa, V domains shown) VH: EVQLVESGGGLVQPGGSLRLSCAASGYTFSSYGMSWVRQAPGKGLELVASITGDAGRTYYPDSVKGRFTISRDNAKNSLYLQMNSLRAEDTAVYYCARDTLVRFLEWSHYYGMDVWGQGTTVTVSS VL: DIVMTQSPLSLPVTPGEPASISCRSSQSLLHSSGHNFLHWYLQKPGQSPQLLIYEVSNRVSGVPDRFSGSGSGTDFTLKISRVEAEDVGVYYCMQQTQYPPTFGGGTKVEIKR | -2.81
Ab141 (antibody, human IgG4 S228P, kappa, V domains shown) VH: EVQLVESGGGLVQPGGSLRLSCAASGFTFSSYGMSWVRQAPGKGLELVASFTGSGGAYYPDSVKGRFTISRDNAKNSLYLQMNSLRAEDTAVYYCARDLLIRFLEWSHYYGMDVWGQGTTVTVSS VL: DIVMTQSPLSLPVTPGEPASISCRSSQSLLHSSGHNFLHWYLQKPGQSPQLLIYEVSNRVSGVPDRFSGSGSGTDFTLKISRVEAEDVGVYYCMQQTQYPGTFGGGTKVEIKR | -3.99
Ab133 (antibody, human IgG4 S228P, kappa, V domains shown, human IgG4 in the EM experiment; also called Ab133 Human IgG4) VH: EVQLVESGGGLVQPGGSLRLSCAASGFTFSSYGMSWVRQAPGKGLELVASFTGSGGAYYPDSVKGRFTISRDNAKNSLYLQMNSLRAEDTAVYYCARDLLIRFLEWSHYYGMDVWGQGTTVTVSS VL: DIVMTQSPLSLPVTPGEPASISCRSSQSLLHSSGHNFLHWYLQKPGQSPQLLIYEVSNRVSGVPDRFSGSGSGTDFTLKISRVEAEDVGVYYCQQQTQYPGTFGGGTKVEIKR | -3.96
Ab108 (antibody, human IgG4 S228P, kappa, V domains shown) VH: EVQLVESGGGLVQPGGSLRLSCAASGSAFSSYGMSWVRQAPGKGLELVASINSNGGSTYYPDSVKGRFTISRDNAKNSLYLQMNSLRAEDTAVYYCARDLLVGFLQWSHYYGMDVWGQGTTVTVSS VL: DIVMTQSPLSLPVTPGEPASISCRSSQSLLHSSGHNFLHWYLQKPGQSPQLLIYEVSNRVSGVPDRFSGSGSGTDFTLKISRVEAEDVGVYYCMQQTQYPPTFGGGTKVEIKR | -2.99
